Values were extracted from the antibiotic and cytotoxicity screens of Wong et al. (2023).

test system: HepG2; experiment: cytotoxicity call (relative viability < 0.9); details: 10 µM
Screen size: about 39,000 compounds; about 3,300 (8.5%) were called active. For the sample, actives were picked, then their nearest neighbours and some compounds at random.
Outcomes you can answer with include only these: active, inactive

Exercise: Could you check what this test reported for Cn1cnc2c1c(=O)[nH]c(=O)n2C ?
Solution: inactive

Exercise: Could you check what this test reported for O=C(Nn1cnnc1)c1ccccc1 ?
Solution: inactive

Exercise: Could you check what this test reported for Cn1cnc(-c2cc3nccc(Oc4ccc(NC(=S)NC(=O)Cc5ccccc5)cc4F)c3s2)c1 ?
Solution: inactive

Exercise: Could you check what this test reported for C[C@H]1CN([C@@H](C)CO)C(=O)c2cccc(NC(=O)Nc3ccc(C(F)(F)F)cc3)c2O[C@H]1CN(C)C(=O)Nc1ccc(F)cc1 ?
Solution: active

Exercise: Could you check what this test reported for COCCNCc1ccc(-c2cc3nccc(Oc4ccc(NC(=O)C5(C(=O)Nc6ccc(F)cc6)CC5)cc4F)c3s2)nc1 ?
Solution: active

Exercise: Could you check what this test reported for C[C@@H]1CCCCO[C@H](CN(C)C(=O)Nc2ccccc2)[C@@H](C)CN([C@H](C)CO)C(=O)c2cc(NC(=O)CCC(F)(F)F)ccc2O1 ?
Solution: inactive

Exercise: Could you check what this test reported for O=C(C[C@@H]1CC[C@@H]2[C@H](COC[C@H](O)CN2C(=O)c2ccncc2)O1)NC1CCC1 ?
Solution: inactive

Exercise: Could you check what this test reported for C[C@H]1CN([C@@H](C)CO)C(=O)c2cccc(NC(=O)c3nc4ccccc4s3)c2O[C@@H]1CN(C)C(=O)Nc1ccc(F)cc1 ?
Solution: inactive

Exercise: Could you check what this test reported for C[C@H](CO)N1C[C@H](C)[C@@H](CN(C)Cc2cccc(C(F)(F)F)c2)OCc2ccccc2-c2ccccc2C1=O ?
Solution: inactive

====

tested on: HepG2; experiment: cytotoxicity call (relative viability < 0.9); conditions: 10 µM
Out of some 39,000 compounds screened, about 3,300 (8.5%) were called active. The full list was thinned out, with actives kept by preference.
propertyMeasured: cytotoxicity call

C[C@@H]1CCCCO[C@H](CN(C)Cc2ccc(Cl)c(Cl)c2)[C@H](C)CN([C@@H](C)CO)C(=O)c2cc(NC(=O)Nc3ccc(C(F)(F)F)cc3)ccc2O1 | active
C[C@H](CO)N1C[C@H](C)[C@@H](CN(C)C(=O)Nc2ccc(F)cc2)Oc2ccc(NC(=O)Nc3ccc(C(F)(F)F)cc3)cc2C1=O | inactive
COc1ccc(-c2cnc3c(c2)C(=O)N([C@@H](C)CO)C[C@@H](C)[C@H](CN(C)C(=O)Cc2ccccn2)O3)cc1 | inactive
C[C@H](CO)N1C[C@H](C)[C@H](CN(C)Cc2ccc(Oc3ccccc3)cc2)Oc2ccc(NC(=O)C3CC3)cc2CC1=O | inactive
C[C@@H]1CN([C@H](C)CO)C(=O)c2cc(NC(=O)Nc3ccc(F)cc3)ccc2O[C@H]1CN(C)C(=O)Nc1ccc(C(F)(F)F)cc1 | inactive

Exercise: Tell me reported cytotoxicity call for C[C@@H]1CN([C@H](C)CO)S(=O)(=O)c2ccc(-c3cccc(F)c3)cc2O[C@H]1CN(C)S(C)(=O)=O , tested with HepG2.
Solution: inactive

Exercise: Tell me reported cytotoxicity call for C[C@H](CO)N1C[C@H](C)[C@@H](CN(C)C(=O)Nc2ccc(C(F)(F)F)cc2)Oc2ccc(NC(=O)Cc3ccccc3)cc2C1=O , tested with HepG2.
Solution: inactive

Exercise: Tell me reported cytotoxicity call for C[C@H](CO)N1C[C@H](C)[C@@H](CN(C)S(=O)(=O)c2ccc(F)cc2)OCCCC[C@H](C)Oc2ccc(NC(=O)Nc3ccc4c(c3)OCO4)cc2C1=O , tested with HepG2.
Solution: inactive

Exercise: Tell me reported cytotoxicity call for C[C@@H]1CN([C@H](C)CO)C(=O)c2cc(NC(=O)Nc3ccc(C(F)(F)F)cc3)ccc2O[C@@H](C)CCCCO[C@H]1CN(C)Cc1ccc(Cl)c(Cl)c1 , tested with HepG2.
Solution: inactive

Exercise: Tell me reported cytotoxicity call for C[C@@H]1CCCCO[C@@H](CN(C)Cc2ccc(Cl)c(Cl)c2)[C@H](C)CN([C@@H](C)CO)C(=O)c2cc(NC(=O)Nc3ccc(C(F)(F)F)cc3)ccc2O1 , tested with HepG2.
Solution: active

Exercise: Tell me reported cytotoxicity call for CC(CCC(=O)O)C1CCC2C3CCC4CCCCC4(C)C3CCC12C (configuration not stated) , tested with HepG2.
Solution: inactive

Exercise: Tell me reported cytotoxicity call for C[C@H](CO)N1C[C@H](C)[C@H](CN(C)Cc2ccc(Oc3ccccc3)cc2)Oc2ccc(NC(=O)C3CCCCC3)cc2CC1=O , tested with HepG2.
Solution: active

Exercise: Tell me reported cytotoxicity call for C[C@@H]1CN([C@@H](C)CO)C(=O)c2cc(NC(=O)Nc3ccc(C(F)(F)F)cc3)ccc2O[C@@H]1CN(C)C(=O)Nc1ccc(F)cc1 , tested with HepG2.
Solution: active

Exercise: Tell me reported cytotoxicity call for COc1cccc(S(=O)(=O)N(C)C[C@@H]2Oc3ncc(-c4ccc(F)cc4)cc3C(=O)N([C@H](C)CO)C[C@@H]2C)c1 , tested with HepG2.
Solution: inactive

Exercise: Tell me reported cytotoxicity call for C[C@@H]1CCCCO[C@@H](CN(C)Cc2ccc(Cl)c(Cl)c2)[C@H](C)CN([C@H](C)CO)C(=O)c2cc(NC(=O)Nc3ccc(C(F)(F)F)cc3)ccc2O1 , tested with HepG2.
Solution: inactive

Exercise: Tell me reported cytotoxicity call for C[C@@H]1CN([C@H](C)CO)C(=O)Cc2cc(NC(=O)C3CCCCC3)ccc2O[C@@H]1CN(C)Cc1ccc(Oc2ccccc2)cc1 , tested with HepG2.
Solution: inactive

====

tested on: HepG2; assay: cytotoxicity call (relative viability < 0.9); conditions: 10 µM
The campaign covered roughly 39,000 compounds. About 3,300 (8.5%) were called active. The sample as a whole holds a higher share of actives than the screen did.
Outcomes you can answer with include only these: active, inactive

Exercise: Could you check what this test reported for C[C@@H]1CN([C@@H](C)CO)C(=O)Cc2cc(NS(=O)(=O)c3cccs3)ccc2O[C@H]1CN(C)S(=O)(=O)c1cccs1 ?
Solution: inactive

Exercise: Could you check what this test reported for C[C@H](CO)N1C[C@H](C)[C@H](CN(C)S(C)(=O)=O)Oc2ncc(C#Cc3ccc(C(F)(F)F)cc3)cc2C1=O ?
Solution: inactive

Exercise: Could you check what this test reported for C[C@@H]1CN([C@@H](C)CO)C(=O)c2cccc(NS(=O)(=O)c3ccccc3)c2O[C@H]1CN(C)Cc1ccc(-c2ccccc2)cc1 ?
Solution: inactive

Exercise: Could you check what this test reported for C[C@@H]1CN([C@H](C)CO)C(=O)c2cccc(NS(=O)(=O)c3ccc(Cl)cc3)c2O[C@H]1CN(C)Cc1ccc(-c2ccccc2)cc1 ?
Solution: inactive

Exercise: Could you check what this test reported for C[C@@H]1CN([C@H](C)CO)C(=O)c2cccc(NS(=O)(=O)c3ccccc3)c2O[C@@H]1CN(C)Cc1ccc(-c2ccccc2)cc1 ?
Solution: active

Exercise: Could you check what this test reported for Cc1ccc(S(=O)(=O)Nc2cccc3c2O[C@@H](CN(C)Cc2ccc(-c4ccccc4)cc2)[C@@H](C)CN([C@@H](C)CO)C3=O)cc1 ?
Solution: inactive

Exercise: Could you check what this test reported for Cc1ccc(S(=O)(=O)Nc2cccc3c2O[C@H](CN(C)Cc2ccc(-c4ccccc4)cc2)[C@@H](C)CN([C@H](C)CO)C3=O)cc1 ?
Solution: inactive

====

test system: HepG2; test: cytotoxicity call (relative viability < 0.9); settings: 10 µM
The campaign covered roughly 39,000 compounds. About 3,300 (8.5%) were called active. Only a selection was taken, and actives are over-represented in it overall.
propertyMeasured: cytotoxicity call

Worked examples follow.
COc1ccc(NC(=O)Nc2ccc3c(c2)C(=O)N([C@H](C)CO)C[C@H](C)[C@@H](CN(C)Cc2ccncc2)OCCCC[C@H](C)O3)cc1 | inactive
COCC#Cc1cnc2c(c1)C(=O)N([C@@H](C)CO)C[C@@H](C)[C@@H](CN(C)C(=O)Nc1ccc(OC)cc1)O2 | inactive
Cc1noc(C)c1NC(=O)Nc1ccc2c(c1)CC(=O)N([C@@H](C)CO)C[C@@H](C)[C@H](CN(C)C(=O)NC(C)C)O2 | inactive
CO[C@@H](C(=O)N(C)C[C@@H]1OCc2ccccc2-c2c(n(C)c3ccccc23)C(=O)N([C@H](C)CO)C[C@@H]1C)c1ccccc1 | inactive
COC(=O)[C@@H](Cc1ccc(-n2cc(C(=O)NO)nn2)cc1)N1CC2=CC(=O)[C@@H](C3CC3)[C@@H]2[C@H]1[C@H](O)Cc1ccccc1 | inactive
COc1ccc(NC(=O)N(C)C[C@H]2OCCCC[C@H](C)Oc3ccc(NS(=O)(=O)c4ccccc4)cc3C(=O)N([C@@H](C)CO)C[C@@H]2C)cc1 | inactive

Please turn your attention to the following entry.
Exercise: # get_value(readout='cytotoxicity call', item= C[C@@H]1CN([C@@H](C)CO)C(=O)c2cc(/C=C/c3ccccc3)cnc2O[C@H]1CN(C)C(=O)c1cnccn1 )
Solution: inactive
